Data origin: patent US11071738B2

- system: Pin1 (Homo sapiens)
- Construct: endogenous in cells; host or cells: 293T cells
- Sequence (Q13526 whole entry): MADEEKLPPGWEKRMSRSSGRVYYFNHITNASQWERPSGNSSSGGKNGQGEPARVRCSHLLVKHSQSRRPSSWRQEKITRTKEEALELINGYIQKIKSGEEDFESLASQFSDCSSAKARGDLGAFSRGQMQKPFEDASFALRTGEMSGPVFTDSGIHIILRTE
- assayProcedure: Cell-based Pin1 inhibition assay with AMPK phosphorylation level as index
- Design: key: +++: a higher level of AMPK phosphorylation is promoted, as compared with C1; ++: a similar level of AMPK phosphorylation is promoted, as compared with C1; +: a lower level of AMPK phosphorylation is promoted, as compared with C1; −: no or almost no promotion is found in AMPK phosphorylation
- protocolConditions: 293T cells, compound at 100 μM, 10 mM 2-DG, pAMPK blot compared with C1
readoutLabel: Pin1 inhibition activity

The cases that follow already have their Pin1 inhibition activity on record.
[[record]]
querysmiles = "O=C(O[C@H](Cc1ccc2ccccc2c1)C(=O)O)c1cccc(Oc2ccccc2)c1"
readoutlabel = "Pin1 inhibition activity"
result = "++"

[[record]]
querysmiles = "O=C(O)[C@@H](Cc1ccc2ccccc2c1)NC(=O)N1c2ccccc2CCc2ccccc21"
readoutlabel = "Pin1 inhibition activity"
result = "+++"

[[record]]
querysmiles = "O=C(Nc1ccccc1Oc1ccccc1)N[C@H](Cc1ccc2ccccc2c1)C(=O)O"
readoutlabel = "Pin1 inhibition activity"
result = "+++"

[[record]]
querysmiles = "O=C(O)[C@@H](Cc1ccc2ccccc2c1)OC(=O)N1c2ccccc2Oc2ccccc21"
readoutlabel = "Pin1 inhibition activity"
result = "++"

[[record]]
querysmiles = "COc1ccc(-c2cc(C(=O)O[C@H](Cc3ccc4ccccc4c3)C(=O)O)c(C)o2)cc1"
readoutlabel = "Pin1 inhibition activity"
result = "+"


Field request: Pin1 inhibition activity | item: COc1cc(OC)cc(C(=O)O[C@H](Cc2ccc3ccccc3c2)C(=O)O)c1 +

Request the reported Pin1 inhibition activity associated with O=C(O)[C@@H](Cc1ccc2ccccc2c1)NC(=O)N1c2ccccc2C=Cc2ccccc21 +

Reported Pin1 inhibition activity for O=C(COc1cccc2ccccc12)O[C@H](Cc1ccc2ccccc2c1)C(=O)O : what is it? +++
